target or test system: T1, human angiotensin 2 type 1 receptor (human, UniProt P30556 1-359)
T1 sequence (looked up): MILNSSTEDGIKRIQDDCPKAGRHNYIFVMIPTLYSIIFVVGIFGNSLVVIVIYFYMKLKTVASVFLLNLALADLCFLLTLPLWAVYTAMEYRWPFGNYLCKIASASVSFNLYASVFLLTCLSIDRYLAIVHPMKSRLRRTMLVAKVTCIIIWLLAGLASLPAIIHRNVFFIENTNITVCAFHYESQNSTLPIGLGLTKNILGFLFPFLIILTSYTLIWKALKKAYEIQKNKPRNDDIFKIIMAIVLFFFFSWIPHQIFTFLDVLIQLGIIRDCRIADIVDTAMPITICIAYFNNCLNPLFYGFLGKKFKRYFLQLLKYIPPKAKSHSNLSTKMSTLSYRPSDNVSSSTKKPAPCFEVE
measurement description: cell-based or functional assay
Non-standard residues stand in square brackets, D forms with d. No end group written: not given here. Sar = CNCC(=O)O
assay endpoint: b-arrestin2 Max (%)

{"binder": "DRVYIHPA [SEQ ID NO: 25]", "assay endpoint": "b-arrestin2 Max (%)", "numeric readout": 57.9}
{"binder": "XRVFIHPA (Sar (sarcosine) at 1; D-Ala at 8) [SEQ ID NO: 48]", "assay endpoint": "b-arrestin2 Max (%)", "numeric readout": 48.1}
{"binder": "[Sar]KVYIHP[dA]-OH (N-terminus assumed; SMILES CC[C@H](C)[C@H](NC(=O)[C@H](Cc1ccc(O)cc1)NC(=O)[C@@H](NC(=O)[C@H](CCCCN)NC(=O)CNC)C(C)C)C(=O)N[C@@H](Cc1c[nH]cn1)C(=O)N1CCC[C@H]1C(=O)N[C@H](C)C(=O)O) [SEQ ID NO: 49]", "assay endpoint": "b-arrestin2 Max (%)", "numeric readout": 72.7}

Data provenance is patent US20100184701A1.
